The origin of these recorded values is the supplement of paper PMC4862054.

Tested on: MFM-223
Assay: normalised response (% of control), CellTiter-Glo; higher = more viable cells (100 = DMSO, 0 = benzethonium chloride kill control)
Details: incubation time: 72 h
recorded-endpoint: normalised response

Enquiry: Please look up its normalised response: CC(C)(C)c1nc(-c2cccc(NS(=O)(=O)c3c(F)cccc3F)c2F)c(-c2ccnc(N)n2)s1 [Dabrafenib] (250 nM)
Return: 107%

Enquiry: Consider the compound CO[C@@H]1[C@H](N(C)C(=O)c2ccccc2)C[C@H]2O[C@]1(C)n1c3ccccc3c3c4c(c5c6ccccc6n2c5c31)C(=O)NC4 [Midostaurin] (1000 nM) and give its measured normalised response.
Return: 75.8%

Enquiry: Returns the measured normalised response for the input compound. Input: CN(Cc1cnc2nc(N)nc(N)c2n1)c1ccc(C(=O)N[C@@H](CCC(=O)O)C(=O)O)cc1 [Methotrexate] (5 nM)
Return: 108%

Enquiry: Look up normalised response: CNC(=O)c1ccccc1Sc1ccc2c(/C=C/c3ccccn3)n[nH]c2c1 [Axitinib] (1000 nM)
Return: 59.8%

Enquiry: Need normalised response, item CO[C@@H]1[C@H](N(C)C(=O)c2ccccc2)C[C@H]2O[C@]1(C)n1c3ccccc3c3c4c(c5c6ccccc6n2c5c31)C(=O)NC4 [Midostaurin] (1 nM)
Return: 100%

Enquiry: Using the record for CCn1c(C(=O)N(C2CC2)C2CC2)cc2c3c(ncn3C)c(Nc3cc(C)n(C)n3)nc21 (10 nM) , report its normalised response.
Return: 102%

Enquiry: GET /values?readout=normalised response&item= C=CCN(/C=C1/C(=O)O[C@H](COC)[C@@]2(C)C1=C(O)C(=O)C1=C2[C@H](OC(C)=O)C[C@]2(C)C(=O)CC[C@@H]12)CC=C [Sonolisib] (10 nM)
Return: 109%

Enquiry: Item CN(C)C(=N)NC(=N)N [Metformin] (100 nM) has what recorded normalised response?
Return: 87.2%

Enquiry: Given the entry CC[C@H](CO)Nc1nc(NCc2ccccc2)c2ncn(C(C)C)c2n1 [Seliciclib] (1000 nM) , report its measured normalised response.
Return: 109%

Enquiry: Recorded normalised response for O=C(O)CNC(=O)c1c(O)c2ccccc2n(Cc2ccccc2)c1=O [IOX-2] (5 nM) , please?
Return: 92.5%

Enquiry: Reported normalised response, compound CC(C)(C)NC(=O)[C@H]1CC[C@H]2[C@@H]3CC[C@H]4NC(=O)C=C[C@]4(C)[C@H]3CC[C@]12C [Finasteride] (10 nM) : ____
Return: 97.8%

Enquiry: Could you share which normalised response value was measured for Cc1cc(Nc2nc(N[C@@H](C)c3ncc(F)cn3)ncc2Cl)[nH]n1 [AZD1480] (1 nM) ?
Return: 95.1%

Enquiry: // query normalised response value for entry CCN(CC)CCCC(C)Nc1ccnc2cc(Cl)ccc12 (stereo not drawn) [Chloroquine] (10000 nM)
Return: 62.9%

Enquiry: So what does the record say about normalised response for CN[C@@H](C)C(=O)N[C@H]1CN(C(=O)CC(C)C)CC[C@H]2CC[C@@H](C(=O)NC(c3ccccc3)c3ccccc3)N2C1=O [AT-406] (1000 nM) ?
Return: 101%

Enquiry: # get_value(readout='normalised response', item= Cc1cn(-c2cc(NC(=O)c3ccc(C)c(Nc4nccc(-c5cccnc5)n4)c3)cc(C(F)(F)F)c2)cn1 [Nilotinib] (1000 nM) )
Return: 97.3%

Enquiry: Which normalised response value belongs to Cc1cc(Nc2nc(N[C@@H](C)c3ncc(F)cn3)ncc2Cl)[nH]n1 [AZD1480] (0.1 nM) ?
Return: 94.9%

Enquiry: I have this compound here, CC[C@H](CO)Nc1nc(NCc2ccccc2)c2ncn(C(C)C)c2n1 [Seliciclib] (1 nM) , and I need its recorded normalised response.
Return: 104%

Enquiry: Which value of normalised response has been reported for CC1(C)CCC(c2ccc(Cl)cc2)=C(CN2CCN(c3ccc(C(=O)NS(=O)(=O)c4ccc(N[C@H](CCN5CCOCC5)CSc5ccccc5)c(S(=O)(=O)C(F)(F)F)c4)cc3)CC2)C1 [Navitoclax] (10 nM) in the records?
Return: 96.7%

Enquiry: What value of measured normalised response is listed for O=C(CCCCCCC(=O)Nc1ccccc1)NO [Vorinostat] (10 nM) ?
Return: 101%

Enquiry: Entry CC(O)(CS(=O)(=O)c1ccc(F)cc1)C(=O)Nc1ccc(C#N)c(C(F)(F)F)c1 (stereo not drawn) [Bicalutamide] (1000 nM) : reported normalised response = ?
Return: 102%

Enquiry: Endpoint output: normalised response of C=CCn1c(=O)c2cnc(Nc3ccc(N4CCN(C)CC4)cc3)nc2n1-c1cccc(C(C)(C)O)n1 [MK1775] (1 nM) . Value?
Return: 85.6%

Enquiry: Consider the compound O=[N+]([O-])c1ccc2c(c1)S(=O)(=O)C=C2 [Stattic] (50 nM) and give its measured normalised response.
Return: 102%

Enquiry: Reported normalised response, compound Cn1cc(C2=C(c3cn(C4CCN(Cc5ccccn5)CC4)c4ccccc34)C(=O)NC2=O)c2ccccc21 [Enzastaurin] (1000 nM) : ____
Return: 97.5%

Enquiry: For the compound CC1(COc2ccc3c(c2)ncn3-c2ccc3cccc(N4CCC(N)CC4)c3n2)COC1 [Crenolanib] (1000 nM) , what normalised response is on record?
Return: 102%

Enquiry: normalised response lookup needed for Cc1nc(C(=O)NCC(=O)O)c(O)c2ccc(Oc3ccccc3)cc12 [FG-4592] (1 nM) , thanks.
Return: 102%

Enquiry: What value of normalised response has been reported for the following compound? COc1cc(Nc2c(C#N)cnc3cc(OCCCN4CCN(C)CC4)c(OC)cc23)c(Cl)cc1Cl [Bosutinib] (1 nM)
Return: 99.3%

Enquiry: Field request: normalised response | item: CC(C)C[C@H](NC(=O)[C@@H](COC(C)(C)C)NC(=O)[C@H](Cc1ccc(O)cc1)NC(=O)[C@H](CO)NC(=O)[C@H](Cc1c[nH]c2ccccc12)NC(=O)[C@H](Cc1cnc[nH]1)NC(=O)[C@@H]1CCC(=O)N1)C(=O)N[C@@H](CCCNC(=N)N)C(=O)N1CCC[C@H]1C(=O)NNC(N)=O [Goserelin] (1 nM)
Return: 96.7%

Enquiry: Can you share its normalised response? I mean this compound: CCNC(=O)c1noc(-c2cc(C(C)C)c(O)cc2O)c1-c1ccc(CN2CCOCC2)cc1 [NVP-AUY922] (1 nM)
Return: 104%
